assay: Novel Modifiers of Survival Motor Neuron (SMN) Protein: Gene Identification via Genome-wide siRNA Screen; settings: HEK293T SMN2-luciferase reporter, siRNA knockdown, 72 h; actives lie on both sides;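 also: luminescence tracks full-length SMN protein made from the SMN2 reporter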
Out of some 31,000 sequences screened, about 1,400 (4.5%) were called active. This excerpt belongs to a sample that is enriched for actives.
Measured median seed-adjusted z-score, listed per entry for reference.
MEASURED PROPERTY: median seed-adjusted z-score

{"columns": ["ITEM SEQUENCE", "OBSERVED"],
 "data": [
  ["CAAUGUUAGGAGUCAGUCATT against ACTL6A", 1.11],
  ["GAAAGACGAGCUUUACCUATT against GSK3A", 0.248],
  ["GCGCUUUGGAGAUCCGAGATT against KLC3", -0.156],
  ["GGAUCAGUUUGACAGUUUUTT against RNPEP", -0.236],
  ["CCCGGAGAAUUCUCAAUGATT against NENF", -0.778],
  ["GGUUAGCUUAUGUUACAUATT against E2F3", -0.215],
  ["GCACAUCAAGUUCUAUACATT against SLCO2A1", -0.0778],
  ["AGACCUCCUACGACAUUAATT against BOC", -0.0192],
  ["GUGUCGAGCUUGCAACUGUTT against LAMC2", -0.186],
  ["GGAGUUUCCCAUCAAACGATT against PADI4", 0.417],
  ["AAACAAUUCCAGUCCAGUUTT against IL8RA", 0.316],
  ["AGAUCGCUGUCAAAACCCUTT against GFOD1", 0.923],
  ["UGCUCUCAGUGGAAGAGGATT against TNFRSF8", 0.739],
  ["GGAUACUUCAGGACUAGAATT against PNN", 1.29],
  ["UGGAGUAAAUGAUAAGAUATT against TRIM45", -0.0974],
  ["CACCUGUUCGUGUCCUUCATT against SCTR", -0.352],
  ["GCCGUUUCAUGUUUGUCUATT against TRPV1", -0.12],
  ["UGCUAGUCCUGGGAACAGATT against PPM1J", -0.901],
  ["GGAACUCAUUAUACAAUGATT against CLCN3", -0.0801],
  ["GCACGUAAGCUGAACACUATT against PRC1", -0.0195],
  ["GGGUUUAACUUUCAGAGAUTT against VN2R1P", -0.25],
  ["GGACUUGAGAGAUCUCUUUTT against DAB1", 0.307],
  ["GGAUAGAGGUUUCCAGUUUTT against CNBP", -1.14],
  ["CCAUCCUUCAGGCGAAUUATT against ACTR8", -0.366],
  ["GCACCGUGGUGUCAACCAUTT against KCNK12", 1.04],
  ["GGACGACCGUGUAUAGUUUTT against RFESD", -0.503]
]}
